Reference source: patent US20240408169A1

Entries and their GI50
Test system: OVCAR3 cells
Assay details: MTT proliferation assay, OVCAR3;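 note: compound given as an 8- or 10-point series, one day after plating, with exposure covering roughly 3-4 cell doublings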
Assay type: cell-based
Condition: 5 days compound exposure, 1:3 serial dilution starting at 10 μM
*1 amine or outer side, *2 acyl side, *3 side chain or, on linkers, in order; H or OH if unused. Where a SMILES comes first, the peptide text is derived from it. Bridges are numbered along the chain shown (N, C = ends). [ ]: non-standard residue; d: D form. The star is where a group is joined. X72 = CN([C@@H](Cc1cc(Cl)ccc1-c1cnn(C2CCS(=O)(=O)C2)c1)C(=O)[*:2])[*:1]; NMehhhLys(Me) = CN([C@@H](CCCCCCCN(C)[*:3])C(=O)[*:2])[*:1]; NMe(hhhLys) = CN([C@@H](CCCCCCCN[*:3])C(=O)[*:2])[*:1]; X214 = CC(C)Cc1ccc(Cl)cc1C[C@@H](C(=O)[*:2])N(C)[*:1]; cBuCO(3,3-F2-1-CF3) = O=C(C1(C(F)(F)F)CC(F)(F)C1)*; NMePhe(2,5-Cl2) = CN[C@@H](Cc1cc(Cl)ccc1Cl)C(=O)O; Pro(trans-4-F) = O=C(O)[C@@H]1C[C@@H](F)CN1; Gly(cPr) = N[C@H](C(=O)O)C1CC1

- Compound: "CC(C)C[C@@H]1NC(=O)[C@@H](N(C)C(=O)[C@@H](NC(=O)[C@@H]2C[C@@H](F)CN2C(=O)C2(C(F)(F)F)CC(F)(F)C2)C2CC2)CCCCCCCN(C)C(=O)[C@H](Cc2cc(Cl)ccc2-c2cnn(C3CCS(=O)(=O)C3)c2)N(C)C1=O (stereo partly drawn) [Example 253] ({cBuCO(3,3-F2-1-CF3)}-[Pro(trans-4-F)][Gly(cPr)][NMehhhLys(Me)]L[X72]; lactam 3-C)"
  GI50: "20 nM"
- Compound: "CC(C)C[C@@H]1NC(=O)[C@@H](N(C)C(=O)[C@@H](NC(=O)[C@@H]2C[C@@H](F)CN2C(=O)C2(C(F)(F)F)CC(F)(F)C2)C2CC2)CCCCCCCNC(=O)[C@H](Cc2cc(Cl)ccc2Cl)N(C)C1=O [Example 7] ({cBuCO(3,3-F2-1-CF3)}-[Pro(trans-4-F)][Gly(cPr)][NMe(hhhLys)]L[NMePhe(2,5-Cl2)]; lactam 3-C)"
  GI50: "50 nM"
- Compound: "CC(C)Cc1ccc(Cl)cc1C[C@H]1C(=O)NCCCCCCC[C@H](N(C)C(=O)[C@@H](NC(=O)[C@@H]2C[C@@H](F)CN2C(=O)C2(C(F)(F)F)CC(F)(F)C2)C2CC2)C(=O)N[C@@H](CC(C)C)C(=O)N1C [Example 64] ({cBuCO(3,3-F2-1-CF3)}-[Pro(trans-4-F)][Gly(cPr)][NMe(hhhLys)]L[X214]; lactam 3-C)"
  GI50: "1240 nM"

###

Tgt: CyclinA2/CDK2 (Homo sapiens)
Construct: purchased CRELUX Protein Services
Assay details: Fluorescence Polarization (FP) competitive binding assay, Cyclin A2/Cdk2;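 note: plates equilibrated two hours at room temperature before polarization reading, IC50 fitted from eight-concentration compound titration curves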
Condition: 8 nM Cyclin A2/Cdk2, 2 nM FAM probe; average of 2-3 independent experiments; read-out: Cyclin A FP IC50
pIC50: −log10 of the molar value. *1 amine or outer side, *2 acyl side, *3 side chain or, on linkers, in order; H or OH if unused. Where a SMILES comes first, the peptide text is derived from it. Bridges are numbered along the chain shown (N, C = ends). [ ]: non-standard residue; d: D form. The star is where a group is joined. X122 = CN([C@@H](Cc1cc(Cl)ccc1C1=CCN(C(=O)C(C)(C)C)CC1)C(=O)[*:2])[*:1]; X57 = CC(C)C(=O)N1C2C=C(c3ccc(Cl)cc3C[C@@H](C(=O)[*:2])N(C)[*:1])CC1CC2; X181 = CN([C@@H](Cc1cc(Cl)ccc1C1=CCN(C(=O)C2CC2)CC1)C(=O)[*:2])[*:1]; X120 = CN([C@@H](Cc1cc(Cl)ccc1-c1ccn(S(C)(=O)=O)c1)C(=O)[*:2])[*:1]; X140 = CN([C@@H](Cc1cc(Cl)ccc1-c1ccc(Oc2cccnc2)cc1)C(=O)[*:2])[*:1]; NMehhhLys(Me) = CN([C@@H](CCCCCCCN(C)[*:3])C(=O)[*:2])[*:1]; X118 = Cc1cc(-c2ccc(Cl)cc2C[C@@H](C(=O)[*:2])N(C)[*:1])cnn1; NMe(hhhLys) = CN([C@@H](CCCCCCCN[*:3])C(=O)[*:2])[*:1]; X164 = C=C(C)c1ccc(Cl)cc1C[C@@H](C(=O)[*:2])N(C)[*:1]; X28 = CN([C@@H](Cc1cc(Cl)cnc1OC1CCC1)C(=O)[*:2])[*:1]; Cyclobutanecarbonyl(1-CF3) = O=C(C1(C(F)(F)F)CCC1)*; cBuCO(3,3-F2-1-CF3) = O=C(C1(C(F)(F)F)CC(F)(F)C1)*; Pro(trans-4-F) = O=C(O)[C@@H]1C[C@@H](F)CN1; Gly(cPr) = N[C@H](C(=O)O)C1CC1
Entries and their pIC50
Measurement label: pIC50

- Molecule: "CC(C)C[C@@H]1NC(=O)[C@@H](N(C)C(=O)[C@@H](NC(=O)[C@@H]2C[C@@H](F)CN2C(=O)C2(C(F)(F)F)CC(F)(F)C2)C2CC2)CCCCCCCN(C)C(=O)[C@H](Cc2cc(Cl)ccc2-c2ccc(Oc3cccnc3)cc2)N(C)C1=O [Example 385] ({cBuCO(3,3-F2-1-CF3)}-[Pro(trans-4-F)][Gly(cPr)][NMehhhLys(Me)]L[X140]; lactam 3-C)"
  Tgt: "CyclinA2/CDK2 (Homo sapiens)"
  Measurement label: "pIC50"
  Numeric readout: 7.70
- Molecule: "CC(C)C[C@@H]1NC(=O)[C@@H](N(C)C(=O)[C@@H](NC(=O)[C@@H]2C[C@@H](F)CN2C(=O)C2(C(F)(F)F)CC(F)(F)C2)C2CC2)CC=CCCCCN(C)C(=O)[C@H](Cc2cc(F)ccc2-c2cnn(C3CCC3)c2)N(C)C1=O [Example 88]"
  Tgt: "CyclinA2/CDK2 (Homo sapiens)"
  Measurement label: "pIC50"
  Numeric readout: 7.30
- Molecule: "CC(C)C[C@@H]1NC(=O)[C@@H](N(C)C(=O)[C@@H](NC(=O)[C@@H]2C[C@@H](F)CN2C(=O)C2(C(F)(F)F)CCC2)C2CC2)CCCCCCCN(C)C(=O)[C@H](Cc2cc(Cl)cnc2OC2CCC2)N(C)C1=O [Example 139] ({Cyclobutanecarbonyl(1-CF3)}-[Pro(trans-4-F)][Gly(cPr)][NMehhhLys(Me)]L[X28]; lactam 3-C)"
  Tgt: "CyclinA2/CDK2 (Homo sapiens)"
  Measurement label: "pIC50"
  Numeric readout: 7.70
- Molecule: "CC(C)C[C@@H]1NC(=O)[C@@H](N(C)C(=O)[C@@H](NC(=O)[C@@H]2C[C@@H](F)CN2C(=O)C2(C(F)(F)F)CC(F)(F)C2)C2CC2)CCCCCCCNC(=O)[C@H](Cc2cc(Cl)ccc2C2=CCN(C(=O)C3CC3)CC2)N(C)C1=O [Example 97] ({cBuCO(3,3-F2-1-CF3)}-[Pro(trans-4-F)][Gly(cPr)][NMe(hhhLys)]L[X181]; lactam 3-C)"
  Tgt: "CyclinA2/CDK2 (Homo sapiens)"
  Measurement label: "pIC50"
  Numeric readout: 7.70
- Molecule: "CC(C)C[C@@H]1NC(=O)[C@@H](N(C)C(=O)[C@@H](NC(=O)[C@@H]2C[C@@H](F)CN2C(=O)C2(C(F)(F)F)CC(F)(F)C2)C2CC2)CC=CCCCCNC(=O)[C@H](Cc2cc(F)ccc2-c2cnn(C)c2)N(C)C1=O [Example 195]"
  Tgt: "CyclinA2/CDK2 (Homo sapiens)"
  Measurement label: "pIC50"
  Numeric readout: 7.40
- Molecule: "CC(C)C[C@@H]1NC(=O)[C@@H](N(C)C(=O)[C@@H](NC(=O)[C@@H]2C[C@@H](F)CN2C(=O)C2(C(F)(F)F)CC(F)(F)C2)C2CC2)CCCCCCCNC(=O)[C@H](Cc2cc(Cl)ccc2C2=CC3CCC(C2)N3C(=O)C(C)C)N(C)C1=O (stereo partly drawn) [Example 193] ({cBuCO(3,3-F2-1-CF3)}-[Pro(trans-4-F)][Gly(cPr)][NMe(hhhLys)]L[X57]; lactam 3-C)"
  Tgt: "CyclinA2/CDK2 (Homo sapiens)"
  Measurement label: "pIC50"
  Numeric readout: 7.70
- Molecule: "C=C(C)c1ccc(Cl)cc1C[C@H]1C(=O)NCCCCCCC[C@H](N(C)C(=O)[C@@H](NC(=O)[C@@H]2C[C@@H](F)CN2C(=O)C2(C(F)(F)F)CC(F)(F)C2)C2CC2)C(=O)N[C@@H](CC(C)C)C(=O)N1C [Example 61] ({cBuCO(3,3-F2-1-CF3)}-[Pro(trans-4-F)][Gly(cPr)][NMe(hhhLys)]L[X164]; lactam 3-C)"
  Tgt: "CyclinA2/CDK2 (Homo sapiens)"
  Measurement label: "pIC50"
  Numeric readout: 7.70
- Molecule: "CC(=O)N1CC=C(c2ccc(Cl)cc2C[C@H]2C(=O)NCCCCC=CC[C@H](N(C)C(=O)[C@@H](NC(=O)[C@@H]3C[C@@H](F)CN3C(=O)C3(C(F)(F)F)CC(F)(F)C3)C3CC3)C(=O)N[C@@H](CC(C)C)C(=O)N2C)CC1 [Example 18]"
  Tgt: "CyclinA2/CDK2 (Homo sapiens)"
  Measurement label: "pIC50"
  Numeric readout: 7.05
- Molecule: "CC(C)C[C@@H]1NC(=O)[C@@H](N(C)C(=O)[C@@H](NC(=O)[C@@H]2C[C@@H](F)CN2C(=O)C2(C(F)(F)F)CC(F)(F)C2)C2CC2)CCCCCCCN(C)C(=O)[C@H](Cc2cc(Cl)ccc2C2=CCN(C(=O)C(C)(C)C)CC2)N(C)C1=O [Example 144] ({cBuCO(3,3-F2-1-CF3)}-[Pro(trans-4-F)][Gly(cPr)][NMehhhLys(Me)]L[X122]; lactam 3-C)"
  Tgt: "CyclinA2/CDK2 (Homo sapiens)"
  Measurement label: "pIC50"
  Numeric readout: 7.70
- Molecule: "CC(C)C[C@@H]1NC(=O)[C@@H](N(C)C(=O)[C@@H](NC(=O)[C@@H]2C[C@@H](F)CN2C(=O)C2(C(F)(F)F)CC(F)(F)C2)C2CC2)CCCCCCCN(C)C(=O)[C@H](Cc2cc(Cl)ccc2-c2ccn(S(C)(=O)=O)c2)N(C)C1=O [Example 307] ({cBuCO(3,3-F2-1-CF3)}-[Pro(trans-4-F)][Gly(cPr)][NMehhhLys(Me)]L[X120]; lactam 3-C)"
  Tgt: "CyclinA2/CDK2 (Homo sapiens)"
  Measurement label: "pIC50"
  Numeric readout: 7.70
- Molecule: "CC(C)C[C@@H]1NC(=O)[C@@H](N(C)C(=O)[C@@H](NC(=O)[C@@H]2C[C@@H](F)CN2C(=O)C2(C(F)(F)F)CC(F)(F)C2)C2CC2)CC=CCCCCNC(=O)[C@H](Cc2cc(Cl)cnc2OC2CC2)N(C)C1=O [Example 129]"
  Tgt: "CyclinA2/CDK2 (Homo sapiens)"
  Measurement label: "pIC50"
  Numeric readout: 6.68
- Molecule: "Cc1cc(-c2ccc(Cl)cc2C[C@H]2C(=O)N(C)CCCCCCC[C@H](N(C)C(=O)[C@@H](NC(=O)[C@@H]3C[C@@H](F)CN3C(=O)C3(C(F)(F)F)CC(F)(F)C3)C3CC3)C(=O)N[C@@H](CC(C)C)C(=O)N2C)cnn1 [Example 296] ({cBuCO(3,3-F2-1-CF3)}-[Pro(trans-4-F)][Gly(cPr)][NMehhhLys(Me)]L[X118]; lactam 3-C)"
  Tgt: "CyclinA2/CDK2 (Homo sapiens)"
  Measurement label: "pIC50"
  Numeric readout: 7.15
